Data origin: the supplement of paper PMC9170038

System: MS2 coat protein
test details: apparent KD of MS2 coat protein; designed switch direction (-1 OFF switch, 1 ON switch): -1; higher = weaker reporter binding
condition label: Eterna round: R95; input ligand: microRNA oligo, concentration not stated
recorded endpoint: apparent KD of MS2 coat protein (nM)
Numbers only here, please. The scale is nM.

# count of solved cases: 2
Task: apparent KD of MS2 coat protein for GCAGGAUAAGUGAGGAUAUACCUAUGGAUACAUAGGUAGAAGGUACAUGAGGAUCACCCAUGUUCCUUACCUGC [Fiskers BMX 4 - 65] (puzzle: Brourd's mod of Exclusion 4) ?
Output: 11.7

Task: apparent KD of MS2 coat protein for AGUCGGCGAGGAUAUACAUGAGGAUCACCCAUGUGGAAUCCUAGACCUGUAGGUCCAUGUAGAAGGCGCUGACA [Exclusion 3 - Was a mod at one point v.2] (puzzle: Exclusion 3) ?
Output: 212

Now for another entry.
Task: apparent KD of MS2 coat protein for AGUACUAUCACGAAAGUGAUAGUACAAAAUAGCAAGUGAACAUGAGGAUCACCCAUGUCCUCAUUUGCUCGUCUUAU [Sensor 3 - 19] (puzzle: Sensor v3, turn-off variant 2) ?
Output: 426

---

Item-by-item account of apparent KD of MS2 coat protein
Tested on: MS2 coat protein
test details: apparent KD of MS2 coat protein; designed switch direction (-1 OFF switch, 1 ON switch): 1; higher = weaker reporter binding
condition label: input ligand: FMN 200 uM
Numbers only here, please. The scale is nM.

# count of solved cases: 3
Task: apparent KD of MS2 coat protein for ACAAGACAGGGAGGAUAUAGCUGUUCAUCAAAGUUAGAAGGCUCGUACACAUGAGGAUCACCCAUGUUGUCGGCAGUCGACUGA [Eternabot solution 42] (Eterna round: R96, puzzle: Same State NG 1) ?
Output: 7.44

Task: apparent KD of MS2 coat protein for AGAUCUCCUCUAGGAUAUCCCUAACAUGAGGAUCACCCAUGUCCGAAUUGCAGACAUAGGCCGAGGGAGAAGGAGAAACCGUCG [Eternabot solution 41] (Eterna round: R96, puzzle: Same State NG 2) ?
Output: 742

Task: apparent KD of MS2 coat protein for CCGGUUUAUGGAGGAUAUGGAGCCUUAUUGGCUCCAGAAGGCUAAACAUGAGGAUCACCCAUGUUACCGGCGGUCAAUAGACCG [Eli NG1ss - 60] (Eterna round: R96, puzzle: Same State NG 1) ?
Output: 11.8

Continuing:
Task: apparent KD of MS2 coat protein for UGAGCCGGCACUGAGGAUAUUCAUAAUAAAACAUGAGGAUCACCCAUGUAGGCCAGAAGGCCUUGGGAGAAGGCAGGUCGGCUCA [Mat - Same State 2 - Mod of UCT - D71] (Eterna round: R96, puzzle: Same State 2) ?
Output: 15.7

Task: apparent KD of MS2 coat protein for GUAAUACAUGAGGAUCACCCAUGUCAAUGUAGUCGAGGAUAUGGGUAGCUAUGAGGCUUACUAGAAGGCGACGAGC [Same State 1 - Mod of Vinnie Teenbexe v.5] (Eterna round: R96, puzzle: Same State 1) ?
Output: 46.5

---

Test system: MS2 coat protein
test details: apparent KD of MS2 coat protein; designed switch direction (-1 OFF switch, 1 ON switch): -1; higher = weaker reporter binding
condition label: input ligand: none
recorded endpoint: apparent KD of MS2 coat protein (µM)
Numbers only here, please. The scale is µM.

# count of solved cases: 2
Task: apparent KD of MS2 coat protein for CUGAACCCGGUAGGAUAUAUUGUGGGCAGGCGUGGAACGACAUGAGGAUCACCCAUGUAAUUUAGGUAGAAGGGCCGAGAGAUU [Excl-NG2-LRO13] (Eterna round: R96, puzzle: Exclusion NG 2) ?
Output: 0.0373

Task: apparent KD of MS2 coat protein for CAUUAUUAUCGAGGAUAUCCUAUUGUAAUUCUGGGAGAAGGCGGACUCAACAUGAGGAUCACCCAUGUAAGACGGGUGCUAGAG [Ex NG1 #24] (Eterna round: R96, puzzle: Exclusion NG 1) ?
Output: 0.276

Now for another entry.
Task: apparent KD of MS2 coat protein for GUGCAGCGAGGAUAUCCAGACGGGUCCAGUACGUGUCUUGGACUUGAGGAUCACCCAAGUAGAAGGCGUCUCAG [salish99_ex2_r4_611] (Eterna round: R97, puzzle: Exclusion 2) ?
Output: 0.114

---

Test system: MS2 coat protein
test details: apparent KD of MS2 coat protein, switch ON state; designed switch direction (-1 OFF switch, 1 ON switch): 1; higher = weaker reporter binding
condition label: FMN input: 0 or 200 uM; Eterna round: R93 (includes R88 designs)
recorded endpoint: apparent KD of MS2 coat protein (nM)
Numbers only here, please. The scale is nM.

Task: apparent KD of MS2 coat protein for AACAAUCUAUCUGAGGAUAUCAUGUCAAAGACAUGAGGAUCACCCAUGUAGCAGGAAACUGCUUAUGAGAAGGCAGAUAGAUUGA [SS2: 1114] ?
Output: 69.4

Task: apparent KD of MS2 coat protein for AAGAAACAUGAGGAUCACCCAUGUAAGAAUAUGGGAGGAUAUGCGAAAAGAAACAAAGAAGCAGAAGGCCUAAGAA [75%, Ex5 sub 1, 5] ?
Output: 26.6

Continuing:
Task: apparent KD of MS2 coat protein for CAUCAUGCGCCUAAGGAUAUGUCUCACAAGACAUGAGGAUCACCCAUGUAGAACAAAUAAGUGAUGCAGAAGGUGGAGCGCAUGC [Edcequed] ?
Output: 18.9

---

Item-by-item account of apparent KD of K4 kissing-loop reporter
System: K4 kissing-loop RNA reporter
test details: apparent KD of K4 kissing-loop reporter; higher = weaker reporter binding
condition label: Eterna round: R107; input ligand: none
Numbers only here, please. The scale is µM.

# count of solved cases: 2
Task: Form field - read-out: apparent KD of K4 kissing-loop reporter; system: K4 kissing-loop RNA reporter; submitted item: GGAUAGGAUAGAGGAUAUGGAAAACACAGAAGUGACUUGUUGUGUUUAUCCAUAGGGAGUGAUGUUCCAGAAGGCUGUCCUAUCG [MatMod 22 - Jieux - Exclusion - FMN B]
Output: 0.206

Task: Form field - read-out: apparent KD of K4 kissing-loop reporter; system: K4 kissing-loop RNA reporter; submitted item: UUCUACGAGUGAUGUUCGUAGUGUAUUCACUAGGAUAUCGUUUUUUCGAGAAGGAGUGAGGAAGUGAUACGAAAGUAUCGCUUCC [FMN A 15]
Output: 0.431

Continuing:
Task: Form field - read-out: apparent KD of K4 kissing-loop reporter; system: K4 kissing-loop RNA reporter; submitted item: GAUAUAGUGAUGUUAUAUAAGAAGGAGUUACGAGGACCGGUACGGCCGCCACUCGAAACGAGUGAUGAUUUGGGAGAUUGGGUUG [SSTryptA.O];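 further: bound reporter read as fluorescence of individual clusters on recovered sequencing chips by microscopy, with normalized cluster intensities fitted with a binding model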
Output: 0.35

---

Tested on: MS2 coat protein
test details: apparent KD of MS2 coat protein; designed switch direction (-1 OFF switch, 1 ON switch): -1; higher = weaker reporter binding
condition label: input ligand: FMN 200 uM
Use y when the recorded apparent KD of MS2 coat protein is no lower than 200 nM; use n when it is lower.

For orientation, consider the following solved cases.
Task: I'd appreciate it if you could say whether GGACGGUAAGUGAGGAUAUGCUCUACCUCGGUAGAGCAGAAGGCACAUGAGGAUCACCCAUGUGAAAACUGUUC [Omei Ex4B B31] (Eterna round: R97, puzzle: Brourd's mod of Exclusion 4) has apparent KD of MS2 coat protein at least equal to 200 nM.
Output: n

Task: I'd appreciate it if you could say whether AGAACAUCAGGAUAUCCAUGACACUACAUGAGGAUCACCCAUGUGAAUCUCCUCAAGGCGGGAGAAGGGAUGUUUG [Eternabot (L1) Solution 34] (Eterna round: R97, puzzle: Exclusion 5) has apparent KD of MS2 coat protein at least equal to 200 nM.
Output: y

Task: I'd appreciate it if you could say whether AUCAGUCUAGAGGAUAUGCUGGAUUAAUAUCUGGCAGAAGGCUGGACAUGAGGAUCACCCAUGUAAAUACUACC [Omei Ex6 A4] (Eterna round: R97, puzzle: Exclusion 6) has apparent KD of MS2 coat protein at least equal to 200 nM.
Output: n

Continuing:
Task: I'd appreciate it if you could say whether GUCGUGCGGCUUUGCUGUGCGGGUACAUGAGGAUCACCCAUGUAGGAUAUGGUGCGCUUUGCGUGCCAGAAGGGCGUGCGUUGG [salish99_ExNG3_r04_010] (Eterna round: R96, puzzle: Exclusion NG 3) has apparent KD of MS2 coat protein at least equal to 200 nM.
Output: n

Task: I'd appreciate it if you could say whether GUCCUGAGCGUUAGGAUAUUCACAGUGGACUACUGGAAGAAGGGACAUGAGGAUCACCCAUGUUCGAUACUGGG [Eternabot (L1) Solution 64] (Eterna round: R97, puzzle: Brourd's mod of Exclusion 4) has apparent KD of MS2 coat protein at least equal to 200 nM.
Output: n

Task: I'd appreciate it if you could say whether AGGUGCUUCUGGAGACAUGAGGAUCACCCAUGUUGAGUUAGCGAGGAUAUCGGUAACCAUUGUUAUGAGAAGGCGCAAACCAGA [Ex NG3 #40] (Eterna round: R96, puzzle: Exclusion NG 3) has apparent KD of MS2 coat protein at least equal to 200 nM.
Output: n

Task: I'd appreciate it if you could say whether AGCGAAUAGACAGGAUAUGAGAAUAGAUAGAGCUCAGAAGGGUCACAUGAGGAUCACCCAUGUGAAGUCUUGAGGCUGCGUGGU [Prohibition 18 - Jieux - Exclusion NG 1] (Eterna round: R96, puzzle: Exclusion NG 1) has apparent KD of MS2 coat protein at least equal to 200 nM.
Output: n

Task: I'd appreciate it if you could say whether UUUUUAGAUGAAGGAUAUACUUAACAUGAGGAUCACCCAUGUGGUGUUGUGAGUGAGUGAGUUUAGUAGAAGGUCAAUGAUUUU [JMF's solution 66] (Eterna round: R96, puzzle: Exclusion NG 2) has apparent KD of MS2 coat protein at least equal to 200 nM.
Output: y

Task: I'd appreciate it if you could say whether GAAAACCGGUGAGGAUAUUUAUAAUAGAGCUUUAUGAUAUACAUGAGGAUCACCCAUGUUACUUUAAAGAAGGCAUCGGAAAAG [Mat - Exclusion NG 2 - Mod of JL - D94] (Eterna round: R96, puzzle: Exclusion NG 2) has apparent KD of MS2 coat protein at least equal to 200 nM.
Output: n

Task: I'd appreciate it if you could say whether CCGAUCAGUGUCAGGAUAUCUACAGGACUGCCUCGAGAGAAGGGACAUGAGGAUCACCCAUGUACCCGGGCAAG [BmEX4 B.2] (Eterna round: R97, puzzle: Brourd's mod of Exclusion 4) has apparent KD of MS2 coat protein at least equal to 200 nM.
Output: n

Task: I'd appreciate it if you could say whether GCCAGUUUUGUGAGGAUAUCGUGCCGUUAGCGGCAUGAGAAGGCACAUGAGGAUCACCCAUGUGUGCAUCCGAG [Eternabot (L1) Solution 91] (Eterna round: R97, puzzle: Brourd's mod of Exclusion 4) has apparent KD of MS2 coat protein at least equal to 200 nM.
Output: n
